test: qHTS of pediatric cancer cell lines to identify multiple opportunities for drug repurposing: Primary screen for BT-37 cells (AID 1347094); conditions: BT-37 viability, CellTiter-Glo luminescence, 48 h; series mostly up to 57.3 µM
Results filed as inconclusive are left out. Calls of active or inactive are those of the source. Calls follow the shape of the dose curve; as a rule, active = well fitted cell-killing curve with a large enough effect; inconclusive = small, poorly fitted or top-dose-only effect; inactive = flat fitted curve, though single readings scatter.
Outcome (select one): active, inactive

Molecule	Label
O=C(O)COc1ccccc1	inactive
CC(C)(C)[C@]1(O)C[C@@H]2OC(=O)C[C@@]23C(=O)O[C@@H]2OC(=O)[C@H](O)C213 (stereo partly specified)	inactive
OCCCBr	inactive

Data request: How was C[C@@H]1[C@H](O)[C@@H](C)C=CC=CCCC=CC=CC=CC=C[C@H](O[C@H]2O[C@@H](C)[C@H](O)[C@@H](N)[C@@H]2O)CC2O[C@](O)(C[C@@H](O)[C@H](O)CC[C@@H](O)C[C@@H](O)C[C@@H](O)CC(=O)O[C@H]1C)C[C@H](O)[C@H]2C(=O)O classified in this test?
Data returned: inactive

Data request: How was CC1=C(O)C(=O)C=C2C1=CC=C1[C@@]2(C)CC[C@@]2(C)[C@@H]3C[C@](C)(C(=O)O)CC[C@]3(C)CC[C@]12C classified in this test?
Data returned: active

Data request: How was COc1ccc2c(c[n+](C)c3c4cc5c(cc4ccc23)OCO5)c1OC classified in this test?
Data returned: active

Data request: How was O=C1C(I)=CC(=C(c2cc(I)c(O)c(I)c2)c2ccccc2C(=O)O)C=C1I classified in this test?
Data returned: inactive

Data request: How was COC(C)(C)CCCC(C)C/C=C/C(C)=C/C(=O)OC(C)C (stereo unspecified) classified in this test?
Data returned: inactive

Data request: How was O=C1CCC[C@@H]2[C@H]3CCCN4CCC[C@@H](CN12)[C@@H]34 classified in this test?
Data returned: inactive

Data request: How was CCCCOC(=O)c1ccccc1C(=O)OCc1ccccc1 classified in this test?
Data returned: inactive

Data request: How was c1cc2c(cc1[C@H]1OC[C@H]3[C@H]1CO[C@H]3c1ccc3c(c1)OCO3)OCO2 classified in this test?
Data returned: inactive

Data request: How was COC(=O)c1cncn1C(C)c1ccccc1 (stereo unspecified) classified in this test?
Data returned: inactive

Data request: How was CC1=NN=C(c2ccc(N)cc2)c2cc3c(cc2C1)OCO3 classified in this test?
Data returned: inactive

Data request: How was O=S(=O)(CC1CS1)c1ccc(Oc2ccccc2)cc1 (stereo unspecified) classified in this test?
Data returned: active

Data request: How was CCN1C[C@]2(OC(=O)c3ccccc3NC(C)=O)CC[C@H](OC)[C@@]34[C@H]5CC6[C@@H](OC)C[C@](O)(C(C[C@@H]23)[C@@H]14)[C@@]5(O)[C@@H]6OC classified in this test?
Data returned: inactive

Data request: How was COC(=O)[C@@H](N)CCCN=C(N)N[N+](=O)[O-] classified in this test?
Data returned: inactive
